Recorded interaction score by entry
assayed-system: T1, 4H338-bA
T1 chain: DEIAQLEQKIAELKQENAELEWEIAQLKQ
experiment-notes: two-hybrid library CCNG1;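 also: natural log of median RNA to DNA barcode read ratio; higher means stronger binding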
Give the figure by itself; no unit, no explanation.

Here's what some known entries look like.
binder="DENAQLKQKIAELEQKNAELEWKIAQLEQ [4H1845-bA]" readout_type="interaction score" measurement=-1.75
binder="DEIAQLEQKIAELKQEIAELKWENAQLEQ [4H331-bA]" readout_type="interaction score" measurement=-0.867
binder="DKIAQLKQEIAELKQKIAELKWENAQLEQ [4H2667-bA]" readout_type="interaction score" measurement=0.164

Qu. What value of measured interaction score is listed for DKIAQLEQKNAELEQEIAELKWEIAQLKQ [4H2442-bA] ?
Ans. -0.0859

Qu. Can you handle DKIQELKKEIEELERENWELKKENQELKR [4H2588-bH] next?
Ans. 0.393

Qu. Please answer likewise for DEIAQLEQKIAELKQENAELEWEIAQLKQ [4H338-bA]
Ans. 0.363
